- target system: AT1 wild-type (WT) receptor (Rattus norvegicus, UniProt P25095)
- Construct: expressed in transfected cells; host or cells: COS1
- experiment: 125I-[Sar1,Ile8]AngII competition binding, wild-type receptor
- condition description: WT; compound Kd / olmesartan Kd
measurement name: Kd ratio relative to olmesartan (in parentheses) (fold)

I = CCCc1nc(C(C)(C)O)c(C(=O)O)n1Cc1ccc(-c2ccccc2-c2nnn[nH]2)cc1 [Olmesartan, olmesartan, reference compound]
II = CCCc1nc(C(C)(C)O)c(C(N)=O)n1Cc1ccc(-c2ccccc2-c2nnn[nH]2)cc1 [R239470]
III = CCCc1nc(C(C)(C)O)c(C(=O)O)n1Cc1ccc(-c2cc(Cc3ccc(OCOC)cc3)ccc2-c2nnn[nH]2)cc1 [R781254]
IV = CCCc1nc(C(C)(C)O)c(C(=O)O)n1Cc1ccc(-c2cc(Cc3ccc(O)cc3)ccc2-c2nnn[nH]2)cc1 [R781253]
Which order do these items fall in when sorted by Kd ratio relative to olmesartan (in parentheses) from largest to smallest? Answer by listing the labels in the order asked for.
III, IV, I, II
(III: 172 fold, IV: 9.1 fold, I: 1.0 fold, II: 0.3 fold)

----------
- target system: AT1 C76A/C289A mutant receptor (Rattus norvegicus, UniProt P25095, C289A/C76A)
- Sequence (P25095 1-359 C76A/C289A): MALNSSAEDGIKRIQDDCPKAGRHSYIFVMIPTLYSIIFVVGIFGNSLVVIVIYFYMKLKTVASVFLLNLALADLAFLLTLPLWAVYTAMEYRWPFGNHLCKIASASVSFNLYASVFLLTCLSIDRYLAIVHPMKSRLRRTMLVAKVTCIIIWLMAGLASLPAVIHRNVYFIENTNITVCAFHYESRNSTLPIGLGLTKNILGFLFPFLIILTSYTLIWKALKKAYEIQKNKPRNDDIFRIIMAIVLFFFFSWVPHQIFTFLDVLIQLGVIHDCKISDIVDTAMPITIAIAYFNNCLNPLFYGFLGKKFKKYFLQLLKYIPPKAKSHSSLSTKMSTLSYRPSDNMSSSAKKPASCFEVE
- experiment: competition binding, C76A/C289A mutant
- condition description: C76A/C289A; COS1 membranes; read-out: Binding affinity (Kd)
measurement name: Kd (nM)

CCCc1nc(C(C)(C)O)c(C(N)=O)n1Cc1ccc(-c2cc(Cc3ccc(O)cc3)ccc2-c2nnn[nH]2)cc1    73

a = CCCc1nc(C(C)(C)O)c(C(=O)O)n1Cc1ccc(-c2ccccc2-c2nnn[nH]2)cc1 [Olmesartan, olmesartan, reference compound]
b = CCCc1nc(C(C)(C)O)c(C(N)=O)n1Cc1ccc(-c2ccccc2-c2nnn[nH]2)cc1
Exercise: compare a and b ; which one has the greater Kd? Your choice should be expressed through its label.
a

----------
- target system: AT1 Y113A mutant receptor (Rattus norvegicus, UniProt P25095, Y113A)
- Sequence (P25095 1-359 Y113A): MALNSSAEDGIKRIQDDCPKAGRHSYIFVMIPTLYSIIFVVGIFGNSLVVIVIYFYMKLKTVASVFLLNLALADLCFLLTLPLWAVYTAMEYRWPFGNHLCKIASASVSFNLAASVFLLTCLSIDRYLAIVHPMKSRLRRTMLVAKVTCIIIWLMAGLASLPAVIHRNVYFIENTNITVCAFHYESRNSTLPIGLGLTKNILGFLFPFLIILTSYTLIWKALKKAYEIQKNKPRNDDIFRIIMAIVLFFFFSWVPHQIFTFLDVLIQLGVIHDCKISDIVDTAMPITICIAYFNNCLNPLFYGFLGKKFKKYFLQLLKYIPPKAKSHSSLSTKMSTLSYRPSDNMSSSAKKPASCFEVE
- experiment: competition binding, Y113A mutant
- condition description: Y113A; COS1 membranes; read-out: Binding affinity (Kd)
pKd: −log10 of the molar value.
measurement name: pKd

A = CCCc1nc(C(C)(C)O)c(C(=O)O)n1Cc1ccc(-c2ccccc2-c2nnn[nH]2)cc1 [Olmesartan, olmesartan, reference compound]
B = CCCc1nc(C(C)(C)O)c(C(N)=O)n1Cc1ccc(-c2cc(Cc3ccc(O)cc3)ccc2-c2nnn[nH]2)cc1
I would appreciate it if you could say which entry, A or B , has the lower pKd value. Your choice should be expressed through its label.
B
